- System: PC-3 prostate
- assay name: NCI tumour cell line growth inhibition, 48 h
reported endpoint: TGI (µM)

N#CSc1c[nH]c2ccc(/C=C/C(=O)/C=C(/C=C/c3ccc4[nH]cc(SC#N)c4c3)OB(F)F)cc12 | 1.95
CS(=O)(=O)CCNCc1ccc(-c2ccc3ncnc(Nc4ccc(OCc5cccc(F)c5)c(C(F)(F)F)c4)c3c2)o1 | 10.8
Nc1ccccc1NC(=O)c1ccc(CCCC(=O)Nc2ccc(C3CC3N)cc2)cc1 (centres undefined) | 95.3
COC1C(O)C(C)OC(OC2C(Oc3cccc4c(O)c5c(=O)oc6ccc(C)c7c(=O)oc(c34)c5c67)OC(C)C(O)C2O)C1O (centres undefined) | 17.8

---

In this section, each of the molecules is paired with its reported TGI.
- System: UACC-62 melanoma
- assay name: NCI tumour cell line growth inhibition, 48 h
reported endpoint: TGI (µM)

Cc1nccc2c3ccc(OCc4cn(-c5ccc(Cl)cc5)nn4)cc3n(CCCc3ccccc3)c12 | 7.43
CN(C)c1ncc(-c2ccc(C(F)(F)F)cc2)c(NC2CCCCCC2)n1 | 35.7
Cc1cc2cn3c4ccc(O)cc4[nH]c(=O)c3c2cc1C | 1.78
N#CC(C#N)=C(N)/C(C#N)=C/c1ccc2ccccc2n1 | 45.9
Cc1ccc(N=N/C(=N/NC(=O)c2cc(Cl)ccc2C(=O)c2ccccc2)c2ccc(N(CCC#N)CCC#N)cc2C)cc1 | 36.2
CN1CCN(c2ccc(Nc3nc(N)c(C(=O)c4ccc5c(c4)OCCO5)s3)cc2)CC1 | 9.35
CN(C)C/C=C/C(=O)Nc1cc2c(Nc3ccc(F)c(Cl)c3F)ncnc2cc1OCCOC(F)F | 4.46
COC1=CC(=O)C(OC)=C(OC)C1=O | 27.9
CCOC(=O)c1sc(N/N=C2\NC(=O)/C(=C/c3ccc([N+](=O)[O-])cc3)S2)nc1C | 73.4

---

- Test system: OVCAR-8 ovarian
- assay name: NCI tumour cell line growth inhibition, 48 h
# key: entry, value: TGI
reported endpoint: TGI

CS(=O)(=O)CCNCc1ccc(-c2ccc3ncnc(Nc4ccc(OCc5cccc(F)c5)c(C(F)(F)F)c4)c3c2)o1 | 11.2 µM
O=C(Nc1cccc(Cc2cccc(NC(=O)c3ccccc3)c2)c1)c1ccccc1 | > 100 µM
CCCCCCCCCc1cc[n+](CC(=O)c2ccc([N+](=O)[O-])cc2)cc1 | 2.13 µM
CC1(C)OB(O)OC1(C)C | > 100 µM
COC(=O)NC1(NC(=O)OC)NC(=O)c2cc(OC)c(OC)c(OC)c2N1 | > 100 µM
Nc1ccccc1NC(=O)c1ccc(CCCC(=O)Nc2ccc(C3CC3N)cc2)cc1 (stereo not given) | > 100 µM
Cc1cc(S(=O)(=O)/N=C(\[N-]S(=O)(=O)c2ccc(Cl)cc2)[n+]2ccc(N(C)C)cc2)c(S)cc1Cl | > 100 µM
CCCC(=O)O[C@H]1C=C2C[C@@]34SS[C@]5(CC6=C[C@H](OC(C)=O)[C@@H]7O[C@@H]7[C@H]6N5C3=O)C(=O)N4[C@@H]2[C@H]2O[C@H]21 | 0.907 µM
CC(=O)N1c2ccccc2NC2=C(C(=O)N(Cc3ccccc3)C2(C)C)C1c1ccco1 (stereo not given) | > 25 µM
CC(C)OP(=O)(OC(C)C)/C(C#N)=C/c1ccco1 | > 100 µM

---

- System: MDA-MB-231 breast
- assay name: NCI tumour cell line growth inhibition, 48 h
reported endpoint: TGI

C/C(=N\Nc1nc2ccccc2n1C)c1cnccn1 | 71.9 µM
CCCCSC1=N/C(=C\c2ccc(N(C)C)cc2)C(NN)=N1 | > 100 µM
CN1C(=O)[C@@H](NC(=O)[C@H](CCC(F)(F)F)[C@H](CCC(F)(F)F)C(N)=O)N=C(c2ccccc2)c2ccccc21 | > 100 µM
Oc1ccccc1C=Nc1ccc(-c2nc3ccccc3[nH]2)cc1 | > 100 µM
COC1C(O)C(C)OC(OC2C(Oc3cccc4c(O)c5c(=O)oc6ccc(C)c7c(=O)oc(c34)c5c67)OC(C)C(O)C2O)C1O (stereo not given) | 8.67 µM

---

Measured TGI accompanies every entry in the list below.
- Test system: BT-549 breast
- assay name: NCI tumour cell line growth inhibition, 48 h
reported endpoint: TGI (µM)

CCN(CC)CCCn1c(=O)c2ccccc2n2c3c(=O)n(C)c(=O)n(C)c3nc12 | 17.6
COC1C(O)C(C)OC(OC2C(Oc3cccc4c(O)c5c(=O)oc6ccc(C)c7c(=O)oc(c34)c5c67)OC(C)C(O)C2O)C1O (centres undefined) | 7.83
N#CSc1c[nH]c2ccc(/C=C/C(=O)/C=C(/C=C/c3ccc4[nH]cc(SC#N)c4c3)OB(F)F)cc12 | 3.43
Cc1ccc2c(n1)C(=O)C=CC2=O | 31.5

---

- Tested on: BT-549 breast
- assay name: NCI tumour cell line growth inhibition, 48 h
# GI50 listing for each entry below
reported endpoint: GI50

COc1ccc(-c2nc(C(=O)c3ccccc3)n(CC(=O)c3ccccc3)c2-c2ccc(OC)cc2)cc1 | > 100000 nM
O=C(O)c1ccc(S(=O)(=O)Nc2ccc3oc4c(c3c2)C(=O)CCC4)cc1 | > 100000 nM
CCCCCCCCCCCCCCCC[N+](C)(CCO)Cc1cnc[nH]1 (configuration not stated) | 2520 nM
CCCCCCCCCc1cc[n+](CC(=O)c2ccc([N+](=O)[O-])cc2)cc1 | 1270 nM
N#CSc1c[nH]c2ccc(/C=C/C(=O)/C=C(/C=C/c3ccc4[nH]cc(SC#N)c4c3)OB(F)F)cc12 | 835 nM
O=C(Nc1ccccc1O)c1ccc(CNc2ccnc(C(F)(F)F)c2)cc1 | 3430 nM
Cc1cc(O)c(C2=NN(c3ccc(S(N)(=O)=O)cc3)C(c3ccc(N(C)C)cc3)C2)c(C)c1Cl (configuration not stated) | 15400 nM
O=C(O)CCC/C=C\C[C@H]1C=CC(=O)/C1=C/C[C@@H](O)CCc1cccc(C(F)(F)F)c1 | 2830 nM
CC(C)CC(=O)Nc1n[nH]c2c1CN(C(=O)C1CCN(C)CC1)C2(C)C | 3860 nM
CN1CCN(c2ccc(Nc3nc(N)c(C(=O)c4ccc5c(c4)OCCO5)s3)cc2)CC1 | 4710 nM
COC(=O)Nc1nc2ccc(C(=O)c3ccc(N(C)C4COC4)cc3)cc2[nH]1 | 2080 nM
CS(=O)(=O)Nc1cccc(-c2cc(-c3ccccc3Cl)c(C#N)c(N)n2)c1 | 532 nM

---

Listed next: entries and their corresponding TGI.
- System: RXF 393 renal
- assay name: NCI tumour cell line growth inhibition, 48 h
reported endpoint: TGI (µM)

CC(=O)N1c2ccccc2NC2=C(C(=O)N(Cc3ccccc3)C2(C)C)C1c1ccco1 (stereo unspecified) | 1.87
O=C(O)CCC/C=C\C[C@H]1C=CC(=O)/C1=C/C[C@@H](O)CCc1cccc(C(F)(F)F)c1 | 3.61
CCN(CC)c1ccc2c(c1)Oc1nc(N)c(C#N)c(N)c1C2Sc1ccc(OC)cc1 (stereo unspecified) | 3.35
c1ccc(C2=NOC3(c4ccccc4)SC4CCCCC4CN23)cc1 (stereo unspecified) | 71.2
O=S(=O)(SCc1ccccc1)C(c1ccccc1)c1ccccc1 | 68
CCOC(=O)Cc1csc2[n+]1C(=O)/C(=C\c1cccc(Cl)c1Cl)S2 | 40.4
[N-]=[N+]=Nc1c(C=O)c(=O)n(-c2ccccc2)c2ccccc12 | 27.2
O=C1C=CC2=[N+]([O-])C(c3ccccc3)(c3ccccc3)C(=Nc3ccccc3)C2=C1 | 3.04
O=C(/C=N/O)Nc1cc(Cl)c(Cl)cc1Cl | 95.3
CCn1cc(-c2ccnc3[nH]ccc23)c(-c2cccc(NC(=O)Nc3ccc(OCc4ccccc4)cc3)c2)n1 | 7.88

---

- Tested on: SF-295 CNS
- assay name: NCI tumour cell line growth inhibition, 48 h
reported endpoint: GI50

OC(COc1ccc(F)cc1)Cn1cnc2c(Cl)ncnc21 (centres undefined) | > 100 µM
N#CC(C#N)N=Nc1ccc(Br)cc1 | 30.3 µM
COc1ccc(C[C@@H]2NC[C@@H](O)[C@@H]2OC(C)=O)cc1 | 6.7 µM
COc1ccc(-c2nc(C(=O)c3ccccc3)n(CC(=O)c3ccccc3)c2-c2ccc(OC)cc2)cc1 | > 100 µM
CCCCCCCCCc1cc[n+](CC(=O)c2ccc([N+](=O)[O-])cc2)cc1 | 1.44 µM
CN1C(=O)[C@@H](NC(=O)[C@H](CCC(F)(F)F)[C@H](CCC(F)(F)F)C(N)=O)N=C(c2ccccc2)c2ccccc21 | 58.4 µM
COc1ccc(C(=O)/C=C/c2cc3c(c(OC)c2)OCC(=O)N3)cc1 | 4.57 µM
O=[N+]([O-])c1ccccc1NC1c2ccccc2Oc2ccccc21 | 4.45 µM
CC(=O)[O-].[Mn+3].[O-]c1ccccc1C=NCCN=Cc1ccccc1[O-] | > 100 µM
